# Tested on: Huh-7 HCV replicon cells
# experimentDescription: CC50 assay (CellTiter-Glo) in Huh-7 HCV replicon cells
# Assay type: cell-based, human
# conditionParameters: Table 1, 3 days
measuredParameter: CC50

# annotated cases, reported CC50 shown
COc1ccc(-c2cnc3nc(N)nc(N4CCN(Cc5cccnc5)CC4)c3n2)cc1OC = 10 to 20 µM
COc1ccc(-c2cnc3nc(N)nc(N4CCN(C(C)c5ccccc5)CC4)c3n2)cc1OC (stereo not shown) = < 10 µM
COc1ccc(-c2cnc3nc(N)nc(N4CCN(CC(=O)N5CCCC5)CC4)c3n2)cc1OC = > 20 µM
COc1ccc(-c2cnc3nc(N)nc(N4CCN(Cc5ccncc5)CC4)c3n2)cc1OC = 10 to 20 µM
COc1ccc(N2CCN(c3nc(N)nc4ncc(-c5ccc(OC)c(OC)c5)nc34)CC2)cc1 = > 20 µM
COc1ccc(-c2cnc3nc(N)nc(N4CCN(Cc5ccccc5F)CC4)c3n2)cc1OC = < 10 µM
COCCOC(=O)N1CCN(c2nc(N)nc3ncc(-c4ccc(OC)c(OC)c4)nc23)CC1 = 10 to 20 µM
COc1ccc(-c2cnc3nc(N)nc(N4CCN(C(=O)Nc5ccc(F)cc5)CC4)c3n2)cc1OC = < 10 µM
COc1ccc(-c2cnc3nc(N)nc(N4CCN(CCc5ccccc5)CC4)c3n2)cc1OC = 10 to 20 µM
COc1ccc(-c2cnc3nc(N)nc(N4CCN(CC5CCCO5)CC4)c3n2)cc1OC (stereo not shown) = > 20 µM

Query block: What CC50 appears in the records for this compound with Huh-7 HCV replicon cells? CCCCCC(=O)N1CCN(c2nc(N)nc3ncc(-c4ccc(OC)c(OC)c4)nc23)CC1
Result block: 10 to 20 µM

Query block: What CC50 appears in the records for this compound with Huh-7 HCV replicon cells? COc1ccc(-c2cnc3nc(N)nc(N4CCN(C(=O)Nc5cccc(C(F)(F)F)c5)CC4)c3n2)cc1OC
Result block: < 10 µM

Query block: What CC50 appears in the records for this compound with Huh-7 HCV replicon cells? COc1ccc(-c2cnc3nc(N)nc(N4CCN(S(=O)(=O)c5ccccc5)CC4)c3n2)cc1OC
Result block: 10 to 20 µM

Query block: What CC50 appears in the records for this compound with Huh-7 HCV replicon cells? COc1ccc(-c2cnc3nc(N)nc(N4CCN(C(=O)N5CCCC5)CC4)c3n2)cc1OC
Result block: 10 to 20 µM

Query block: What CC50 appears in the records for this compound with Huh-7 HCV replicon cells? COc1ccc(-c2cnc3nc(N)nc(N4CCN(Cc5cccc(C)c5)CC4)c3n2)cc1OC
Result block: 10 to 20 µM

Query block: What CC50 appears in the records for this compound with Huh-7 HCV replicon cells? CCN(C(=O)N1CCN(c2nc(N)nc3ncc(-c4ccc(OC)c(OC)c4)nc23)CC1)c1ccccc1
Result block: < 10 µM

Query block: What CC50 appears in the records for this compound with Huh-7 HCV replicon cells? COc1ccc(-c2cnc3nc(N)nc(N4CCN(C(=O)OCc5ccccc5)CC4)c3n2)cc1OC
Result block: < 10 µM

Query block: What CC50 appears in the records for this compound with Huh-7 HCV replicon cells? COc1ccc(-c2cnc3nc(N)nc(N4CCN(C(=O)Nc5cccs5)CC4)c3n2)cc1OC
Result block: < 10 µM

Query block: What CC50 appears in the records for this compound with Huh-7 HCV replicon cells? COCC(=O)N1CCN(c2nc(N)nc3ncc(-c4ccc(OC)c(OC)c4)nc23)CC1
Result block: > 20 µM

Query block: What CC50 appears in the records for this compound with Huh-7 HCV replicon cells? COc1ccc(-c2cnc3nc(N)nc(N4CCN(S(=O)(=O)Cc5ccccc5)CC4)c3n2)cc1OC
Result block: > 20 µM

Query block: What CC50 appears in the records for this compound with Huh-7 HCV replicon cells? COc1ccc(-c2cnc3nc(N)nc(N4CCN(CCC#N)CC4)c3n2)cc1OC
Result block: 10 to 20 µM

Query block: What CC50 appears in the records for this compound with Huh-7 HCV replicon cells? COc1ccc(-c2cnc3nc(N)nc(N4CCN(C(=O)Nc5cccc(C)c5)CC4)c3n2)cc1OC
Result block: < 10 µM

Query block: What CC50 appears in the records for this compound with Huh-7 HCV replicon cells? CCN(CC)C(=O)N1CCN(c2nc(N)nc3ncc(-c4ccc(OC)c(OC)c4)nc23)CC1
Result block: > 20 µM

Query block: What CC50 appears in the records for this compound with Huh-7 HCV replicon cells? COc1ccc(-c2cnc3nc(N)nc(N4CCN(CC(=O)N5CCOCC5)CC4)c3n2)cc1OC
Result block: > 20 µM

Query block: What CC50 appears in the records for this compound with Huh-7 HCV replicon cells? CCCCc1ccc(C(=O)N2CCN(c3nc(N)nc4ncc(-c5ccc(OC)c(OC)c5)nc34)CC2)cc1
Result block: < 10 µM
